Listed next: entries and their corresponding pIC50.
Target Under Test: human P2X3 receptor (Homo sapiens (Human), UniProt P56373)
Sequence (P56373 whole entry): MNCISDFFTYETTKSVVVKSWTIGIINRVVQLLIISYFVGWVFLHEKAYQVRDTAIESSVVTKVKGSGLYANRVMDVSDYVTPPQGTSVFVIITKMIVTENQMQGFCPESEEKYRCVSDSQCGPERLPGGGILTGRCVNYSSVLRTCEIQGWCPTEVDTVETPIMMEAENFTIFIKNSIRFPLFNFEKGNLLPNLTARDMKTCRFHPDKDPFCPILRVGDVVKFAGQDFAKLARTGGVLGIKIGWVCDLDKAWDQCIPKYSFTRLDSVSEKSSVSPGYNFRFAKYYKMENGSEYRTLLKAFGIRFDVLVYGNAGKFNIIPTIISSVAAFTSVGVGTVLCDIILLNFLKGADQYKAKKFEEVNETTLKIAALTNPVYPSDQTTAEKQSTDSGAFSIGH
Experiment Summary: Evaluation of human P2X3 receptor inhibitory activity (Fluo-3 calcium fluorescence, FDSS 3000, ATP stimulation)
Format: cell-based
Measurement Setup: C6BU-1 cells stably expressing human P2X3 receptor, Fluo-3 fluorescence, FDSS 3000
The read-out pIC50 is expressed as -log10 of concentration in moles per litre.

Answered cases to consult:
1. Cc1ccc(Cn2c(=O)n(C[C@H](C)C(=O)O)c(=O)[nH]/c2=N\c2ccc(OC(C)C)c(OC(C)C)c2)cc1
6.69
2. COC(=O)Cn1c(=O)[nH]/c(=N\c2ccc(Oc3ccnc(O)c3)cc2)n(Cc2ccc(Cl)cc2)c1=O
8.40
3. Cc1ccc(Cn2c(=O)n(C[C@H](C)C(=O)O)c(=O)[nH]/c2=N\c2ccc(Oc3cccnc3)cc2)cc1
7.85

Asked: # query: pIC50 of entry "COc1ccc(Oc2ccc(/N=c3\[nH]c(=O)n(C[C@H](O)CO)c(=O)n3Cc3ccc(Cl)cc3)cc2)cn1"
Given back: 8.30

---

Target Under Test: human P2X3 receptor (Homo sapiens (Human), UniProt P56373)
Experiment Summary: Evaluation of human P2X3 receptor inhibitory activity (Fluo-3 calcium fluorescence, FDSS 3000, ATP stimulation);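 also: stimulus was 50 nM ATP with fluorescence followed for 3 min, and the response per well was peak post-ATP fluorescence divided by the reading at measurement start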
Type: cell-based
Measurement Setup: C6BU-1 cells stably expressing human P2X3 receptor
Measurement Type: IC50 (nM)
Field: numeric (nM). Do not append units.

1) C=Cc1cc(/N=c2\[nH]c(=O)n(C[C@H](C)C(=O)OC)c(=O)n2Cc2ccc(C)cc2)ccc1OCC [Compound I-1191]
22
2) COC(=O)c1ccc(Cn2c(=O)[nH]/c(=N\c3ccc(OC(C)C)c(C)c3)n(Cc3ccc(Cl)cc3)c2=O)o1 [Compound I-0700]
6
3) Cc1cc(/N=c2\[nH]c(=O)n(Cc3cc(C(=O)O)no3)c(=O)n2Cc2ccc(Cl)cc2)ccc1OC(C)C [Compound I-0802]
21
4) CCOC(=O)CCn1c(=O)[nH]/c(=N\c2ccc(OC(C)C)c(OC)c2)n(Cc2ccc(C)cc2)c1=O [Compound I-1246]
6
5) CCn1c(=O)[nH]/c(=N\c2ccc(Oc3ccc(F)c(C(=O)OC)c3)cc2)n(Cc2ccc(Cl)cc2)c1=O [Compound I-2057]
21
6) CCn1c(=O)[nH]/c(=N\c2ccc(Oc3ccccc3C(=O)O)cc2)n(Cc2ccc(Cl)cc2)c1=O [Compound I-1992]
240
7) Cc1oc2ccc(/N=c3\[nH]c(=O)n(CC(CO)CO)c(=O)n3Cc3ccc(Cl)cc3)cc2c1C [Compound I-2072]
8
8) CCc1nc2ccc(/N=c3\[nH]c(=O)n(CCCCC(=O)O)c(=O)n3Cc3ccc(C)cc3)cc2s1 [Compound I-2159]
47

Asked: For human P2X3 receptor (Homo sapiens (Human), UniProt P56373), provide IC50 of CCCn1c(=O)[nH]/c(=N\c2ccc(Oc3ccc(C(=O)OC)nc3)cc2)n(Cc2ccc(Cl)cc2)c1=O [Compound I-2157] please.
Given back: 1

Asked: Proceed to COC(=O)[C@H](C)[C@H](C)n1c(=O)[nH]/c(=N\c2ccc(OCC(C)C)cc2)n(Cc2ccc(C)cc2)c1=O [Compound I-1331]
Given back: 56

Asked: Proceed to C[C@@H](Cn1c(=O)[nH]/c(=N\c2ccc(OCCO)cc2)n(Cc2ccc(Cl)cc2)c1=O)C(=O)O [Compound I-0733]
Given back: 287

Asked: Proceed to CCn1c(=O)[nH]/c(=N\c2ccc(Oc3cncc(OC)n3)cc2)n(Cc2ccc(Cl)cc2)c1=O [Compound I-2125]
Given back: 7

Asked: Proceed to CCOC(=O)c1csc(Oc2ccc(/N=c3\[nH]c(=O)n(CC)c(=O)n3Cc3ccc(Cl)cc3)cc2)n1 [Compound I-2191]
Given back: 5

Asked: Proceed to COC(=O)C(C)(C)Cn1c(=O)[nH]/c(=N\c2ccc(OCC3CC3)cc2)n(Cc2ccc(Cl)cc2)c1=O [Compound I-1236]
Given back: 13
